target: T1, SARS-CoV-2 Receptor Binding Domain (RBD) protein (SARS-CoV-2, UniProt P0DTC2 319-541); assay: SPR (Carterra LSA); scFv captured by anti-V5, RBD as analyte
T1 construct: also called Sars-Cov-2 (COV2)
Kindly state kon for each of the entries shown.
One number for each entry, in M⁻¹ s⁻¹.

Reference set, count: 2
INSERT INTO assay_data (binder, reported_property, result_value) VALUES
  ('COVID19_P14_D07 (scFv, V domains shown) VH: QVQLVQSGAEVKKPGSSVKVSCKASGYTFSSFYIHWVRQAPGQGLEWMGGIIPIFGEAEYAHKFQGRVTITADESTSTAYMELSSLRSEDTAVYYCAMETVMGGMDVWGQGTLVTVSS VL: SSYVLTQPPSVSVAPGKTARITCGGNNIGSKSVHWYQQKPGQAPVLVIYYDSDRPSGIPERFSGSNSGNTATLTISRVEAGDEADYYCQVWDSSSDYVFGGGTKLTVLA', 'kon', 381000),
  ('COVID19_P14_F07 (scFv, V domains shown) VH: QVQLVQSGAEVKKPGSSVKVSCKASGGTFSSYAISWMRQAPGQGLEWMGWINPNSGGTNYAQKFQGRVTITADESTSTAYMELSNLRSEDTAVYYCARDTYWGGMDVWGQGTLVTVSS VL: SSYVLTQPPSVSVAPGKTARITCGGNNIGSKSVHWYQQKPGQAPVLVIYYDSDRPSGIPERFSGSNSGNTATLTISRVEAGDEADYYCQVWDSSSFYVFGGGTKLTVLA', 'kon', 144000);

Report measured kon; entry is COVID19_P13_B05 (scFv, V domains shown) VH: QVQLVQSGAEVKKPGSSVKVSCKASGYTFTSYDINWVRQAPGQGLEWMGWINPNSGGTNYAQKFQGRVTITADESTSTAYMELSSLRSEDTAVYYCARDTFFGGMDVWGQGTLVTVSS VL: SSYVLTQPPSVSVAPGKTARITCGGNNIGSKSVHWYQQKPGQAPVLVIYYDSDRPSGIPERFSGSNSGNTATLTISRVEAGDEADYYCQVWDSSSYYVFGGGTKLTVLA
170000
